tested on: PC-3 prostate; test: NCI-60 one-dose screen, 48 h (100 = growth as untreated, 0 = no growth, -100 = all killed); settings: 10 µM unless noted
The panel holds about 83,000 compounds, 20% with a hit somewhere; the sample as a whole holds those more often.
property: growth (%)
I only need the number, in %, no unit after it.

CCCCNc1ccc2c3c(cccc13)C(=O)N(NCC(O)COc1ccc3c(C)cc(=O)oc3c1)C2=O (stereo not given) : 84
Cc1ccc(C(=O)Nc2cc(-n3ccnc3)cc(C(F)(F)F)c2)cc1-n1cc(-c2cnc3cccnn23)nn1 : 123
CC1=C(C(=O)OC(C)C)C(c2ccc(O)cc2)NC(=O)N1 (stereo not given) : 92.1

Suppose we examine the compound `COc1cc(/C=C/C(=O)c2cnn(-c3cc(=O)[nH]c4ccc(Cl)cc34)c2C)cc(OC)c1OC` ; what growth value has been reported?
-26.9

Suppose we examine the compound O=C1CCC(N2C(=O)c3cccc(NCCOCCOCCOCCC(=O)NCCCC(=O)NC(c4ccc5c(c4)OCO5)c4cc(Cl)c5cccnc5c4O)c3C2=O)C(=O)C1 (stereo not given) ; what growth value has been reported?
32.5

----------
tested on: MOLT-4 leukemia; assay: NCI-60 one-dose screen, 48 h; settings: 10 µM unless noted
The panel holds about 83,000 compounds, 20% with a hit somewhere; the sample as a whole holds those more often. Active and inactive are the calls of the source. Rule for the calls: active = growth percent below 10; inactive = the rest.
A correct response names exactly one class from active, inactive

// return assay outcome for `O=Cc1cncc(-c2ccc3ncnc(N4CCc5cc(F)c(Cl)cc54)c3c2)c1`
active

// return assay outcome for `COc1ccc(-c2nc3ccccc3n2CC(=O)N=Nc2c(O)[nH]c3ccc(OC)cc23)cc1`
inactive

// return assay outcome for CCOc1ccccc1[C@H]1C(C(=O)c2ccc(Cl)cc2)C2(N[C@@H]1c1ccccc1)C(=O)Nc1ccc(Cl)cc12 (some centres not stated)
active

// return assay outcome for `Cc1nn(-c2ccccc2)c2nc(C)n(CC(=O)N/N=C/c3ccccc3O)c(=O)c12`
inactive

// return assay outcome for `CCN1CCN(Cc2ccc(C(=O)Nc3cccc(Nc4ccc5c(OC)cccc5n4)c3)cc2C(F)(F)F)CC1`
active

// return assay outcome for `C=CCn1c(O)c(N=Nc2nc(-c3cc4ccccc4oc3=O)cs2)c2ccccc21`
inactive

// return assay outcome for `Cn1cc(-c2cc(N)n3nc(-c4c[nH]c5ccc(F)cc45)cc3n2)c2cc(Br)cnc21`
active

// return assay outcome for NS(=O)(=O)c1ccc(N2N=C(c3ccc(NC(=O)Nc4ccccc4)cc3)CC2c2ccc(Br)cc2)cc1 (configuration not stated)
active

// return assay outcome for `O=C(N/N=C/c1ccc(Cl)o1)c1[nH]c2ccc(Br)cc2c1-c1ccccc1`
active

// return assay outcome for `O=C(CSc1nnc(-c2ccc(-c3nc4ccccc4[nH]3)cc2)o1)Nc1ccccc1`
inactive

// return assay outcome for Oc1ccc(F)c(Nc2nc(SCCN3CCOCC3)nc3c2cnn3CC(Cl)c2ccc(Br)cc2)c1 (configuration not stated)
active

// return assay outcome for `COc1ccc2[nH]c(=O)c(CSc3ccccc3Nc3nccc(-c4ccc5c(c4)OCO5)n3)cc2c1`
inactive

// return assay outcome for `N#CCc1nnc(NC(=O)c2ccc(-n3c(=O)[nH]c4ccccc4c3=O)cc2)s1`
inactive

----------
Test system: MDA-MB-231 breast
Assay: NCI-60 one-dose screen, 48 h
Settings: 10 µM unless noted
Method: Cells are grown in 96 well plates and exposed to the test compound for 48 hours. Compounds are tested at a single concentration, which is 10^-5 M for most compounds. The reported endpoint is percent growth (GI% or GIPRCNT), where numbers from 0 - 100% represent growth inhibition, and numbers from -100% - 0 represent cell death. For example, a value of 40 represents 60% growth inhibition. A value of 0 means no net growth occurred over the course of the experiment. […]
About 83,000 compounds went through this panel and 20% of them were active in at least one assay; those are over-represented in the sample as a whole. Activity calls are given as the source filed them. How the source made its calls: active means growth percent below 10; inactive means the rest.
A correct response names exactly one class from 1 = active, -1 = inactive

Cc1cc(C(NC(=O)C2CC3(CC(Nc4cccc5c4C(=O)N(C4CCC(=O)NC4=O)C5=O)C3)C2)c2ccc3c(c2)OC(F)(F)O3)c(O)c2ncccc12 (stereo not drawn) : -1
COc1ccc2[nH]c(O)c(N=NC(=O)c3ccc4nc(-c5ccc(Cl)cc5)[nH]c4c3)c2c1 : -1

// return assay outcome for `CCC(=O)c1c2c(c3ccc4c5ccccc5ccc4n13)C(=O)c1ccccc1C2=O`
-1

// return assay outcome for COc1cc(C2CC(c3ccc(C(F)(F)F)cc3)=Nc3c(N)nc(N)nc3N2)ccc1Oc1nc(Nc2ccc(F)cc2)nc(N(C)C)n1 (stereo not drawn)
-1

// return assay outcome for `COc1cc(NC(=O)CSc2nnc(-c3ccc(-c4nc5ccc(Cl)cc5[nH]4)cc3)o2)cc(OC)c1OC`
-1

// return assay outcome for Cc1ccc(C(C(=O)NC2CCCCC2)N(Cc2ccccc2Cl)C(=O)c2ccc(CN3CCOCC3)o2)o1 (stereo not drawn)
-1

// return assay outcome for `O=C(N/N=C/c1ccsc1)c1[nH]c2ccc(Br)cc2c1-c1ccccc1`
1

// return assay outcome for `Cc1ccc(C(=O)Nc2cccc(C(=O)NC(=S)Nc3ccc(S(N)(=O)=O)cc3)c2)cc1`
-1

----------
system: NCI-H226 lung; assay: NCI-60 one-dose screen, 48 h (100 = growth as untreated, 0 = no growth, -100 = all killed); conditions: 10 µM unless noted
The panel holds about 83,000 compounds, 20% with a hit somewhere; the sample as a whole holds those more often.
Lab note: anything with growth at or over 60% counts as condition met; the rest go in condition not met.

Example cases with answers are listed next.
O=[N+]([O-])c1cccc(-c2nnc3c(/C=C/c4ccc(F)cc4)nc4ccccc4n23)c1 : condition met
Fc1ccc(N2CC(Cn3c(C(F)(F)F)cc4c(Cl)ncnc43)C2)c(F)c1 : condition met
O=C(/C=C1\C(=O)N(Cc2ccccc2)c2ccccc21)c1cc2ccccc2oc1=O : condition met
Nc1nn2c(-c3cc4cc(Br)ccc4oc3=O)ccnc2c1N=Nc1ccccc1 : condition not met
CC1=C(C)C(=O)C(N2CCSCC2)=CC1=O : condition met
S=C(Nc1ccccc1)Nc1ccc(OCc2nc3ccc(Cl)cc3[nH]2)cc1 : condition met
Cc1ccc(C(=O)Nc2cc(-n3ccnc3C)cc(C(F)(F)F)c2)cc1C#Cc1cnc2cccnn12 : condition not met
COC(=O)c1c(C(=O)OC)c2c3ccccc3c3ccccc3n2c1C(=O)C(F)(F)F : condition met

Kindly review the next compound as well.
Could you tell me if the measured growth of `COc1cccc(-c2ccc(/C=N/NC(=O)c3[nH]c4ccc(Br)cc4c3-c3ccccc3)s2)c1` reaches 60% or more?
condition not met

----------
tested on: KM12 colon; assay: NCI-60 one-dose screen, 48 h (100 = growth as untreated, 0 = no growth, -100 = all killed); settings: 10 µM unless noted
About 83,000 compounds went through this panel and 20% of them were active in at least one assay; those are over-represented in the sample as a whole. Active and inactive are the calls of the source. Rule for the calls: active = growth percent below 10; inactive = the rest.
Consider the following compounds and their measured growth readings.

Suppose we examine the compound `N#C/C(=C/c1ccc(Cl)cc1)c1nnc(NC(=O)c2ccc(-n3c(=O)[nH]c4ccccc4c3=O)cc2)s1` ; what growth value has been reported?
23.6% (inactive)

Suppose we examine the compound `COc1ccc2[nH]c(=O)c(CSc3ccccc3Nc3nccc(-c4ccc5c(c4)OCO5)n3)cc2c1` ; what growth value has been reported?
89.7% (inactive)

Suppose we examine the compound `Cn1cc(-c2cc(N)n3nc(-c4c[nH]c5ccccc45)cc3n2)c2cc(Br)ccc21` ; what growth value has been reported?
-79.3% (active)

----------
system: HCT-116 colon; experiment: NCI-60 one-dose screen, 48 h (100 = growth as untreated, 0 = no growth, -100 = all killed); conditions: 10 µM unless noted
About 83,000 compounds went through this panel and 20% of them were active in at least one assay; those are over-represented in the sample as a whole.
Consider the following compounds and their measured growth readings.
I only need the number, in %, no unit after it.

These recorded examples may help you get a feel for the data.
O=C1c2cccc3c(N4CCN(c5ccccc5)CC4)ccc(c23)C(=O)N1c1cccc(-c2nn(-c3ccccc3)cc2-c2nc3ccccc3s2)c1 : 101
COc1ccc2[nH]c(=O)c(CSc3ccccc3Nc3nccc(-c4ccc(C(F)(F)F)cc4)n3)cc2c1 : -8.91
CC1=C(C(=O)Nc2ccccc2)C(c2cccc(Cl)c2Cl)n2c(nc3ccccc32)N1 (stereo not given) : 29.6
O=C(CSc1nc2c(c(=O)[nH]1)CCCC2)Nc1ccccc1C(=O)O : 96.2

Now turn to the next compound.
Reported growth for HCT-116 colon, given `COc1cncc(-c2ccc3ncnc(N4CCc5ccc(Cl)cc54)c3c2)c1` ?
-58

----------
system: LOX IMVI melanoma; test: NCI-60 one-dose screen, 48 h; details: 10 µM unless noted
This is part of a sample that, as a whole, favours compounds with a hit. Of some 83,000 tested, about 20% had one in any assay. Activity calls are given as the source filed them. The calls were made as follows: active = growth percent below 10; inactive = the rest.
A correct response names exactly one class from active, inactive

CCCn1c(NC(=O)c2cccc(C(N)=O)c2)nc2cc(CN3CCCCC3)ccc21 : inactive
CCOc1ccccc1[C@H]1C(C(=O)c2ccc(Cl)cc2)C2(N[C@@H]1c1ccccc1)C(=O)Nc1ccc(Cl)cc12 (stereo partly drawn) : inactive

Kindly review the next compound as well.
// return assay outcome for Cc1ccc(C2CC(c3ccc(NC(=O)Nc4ccccc4)cc3)=NN2c2ccc(S(C)(=O)=O)cc2)cc1 (stereo not drawn)
active
